We begin with IC50 values for MAGL (Homo sapiens, UniProt Q99685), as collected from the published literature.

Request: IC50, test system MAGL (Homo sapiens, UniProt Q99685), entry O=C(c1cscn1)N1CCN(C2CN(C(=O)c3nc4cc(Cl)ccc4s3)C2)CC1
8440 nM

# returns recorded IC50 (system: MAGL (Homo sapiens, UniProt Q99685)) for O=C1N[C@H](CCC(=O)N2CC3(C2)CN(S(=O)(=O)c2ccc(F)cc2C(F)(F)F)C3)CO1
# Sequence (Q99685 whole entry, species assumed): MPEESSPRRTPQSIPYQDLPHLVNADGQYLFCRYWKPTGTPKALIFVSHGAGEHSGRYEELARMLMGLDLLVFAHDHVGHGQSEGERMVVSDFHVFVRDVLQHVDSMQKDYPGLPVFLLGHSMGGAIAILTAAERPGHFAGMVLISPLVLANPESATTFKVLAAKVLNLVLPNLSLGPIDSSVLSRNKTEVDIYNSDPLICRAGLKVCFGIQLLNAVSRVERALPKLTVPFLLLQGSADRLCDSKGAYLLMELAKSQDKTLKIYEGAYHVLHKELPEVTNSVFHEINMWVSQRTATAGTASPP
350 nM

Recorded IC50 for CC1CN(C(=O)N2CC(OCc3ccc(C(F)(F)F)cc3F)C2)CC2NC(=O)COC12 (stereo not drawn) with MAGL (Homo sapiens, UniProt Q99685), please?
118 nM

Checklist item: IC50 tested on MAGL (Homo sapiens, UniProt Q99685), entry O=C1CO[C@H]2CCN(C(=O)N3CC(c4ccc(-c5ccc(F)cc5F)cc4)C3)C[C@@H]2N1 (single isomer, unassigned) , value?
28 nM

What IC50 appears in the records for this compound with MAGL (Homo sapiens, UniProt Q99685)? O=C(c1ccc2nc(Cc3ccccc3)[nH]c2c1)N1CCN(C2CN(C(=O)c3nccs3)C2)CC1
1400 nM

Query the reported IC50 for MAGL (Homo sapiens, UniProt Q99685); item: C[C@H]1CN(C(=O)c2ccc(-c3cn(CC(C)(C)C)nn3)cc2)CCN1c1nc2nc(Cl)ccc2o1
137 nM

Please state recorded IC50 (tested on MAGL (Homo sapiens, UniProt Q99685)) of NCCOc1cccc(C(c2ccccc2)C2CCN(C(=O)N3CC[C@@H]4OCC(=O)N[C@@H]4C3)CC2)c1 (single isomer, unassigned)
48.5 nM
